Recorded fraction unbound at 10 µM for the following molecules
Test Protocol: Plasma protein binding in human assessed as fraction bound at 10 uM by rapid equilibrium dialysis based RF-MS analysis
Format: ADME, cell-free
Condition Details: read-out: PPB (converted)
Keep it simple and answer with nothing but the number.

Here is how some molecules turned out for fraction unbound at 10 µM.
Task item: Please supply the value of reported fraction unbound at 10 µM for the item `C=C(C)[C@@H]1CC[C@]2(C(=O)O)CC[C@]3(C)[C@H](CC[C@@H]4[C@@]5(C)Cc6c(C(F)(F)F)cc(=O)oc6C(C)(C)[C@@H]5CC[C@]43C)[C@@H]12`
Reply: 0.135

Task item: Please supply the value of reported fraction unbound at 10 µM for the item `CC(C)[C@@H]1CC[C@]2(C(=O)O)CC[C@]3(C)[C@H](CC[C@@H]4[C@@]5(C)Cc6c(C(F)(F)F)cc(=O)oc6C(C)(C)[C@@H]5CC[C@]43C)[C@@H]12`
Reply: 0.056

Task item: Please supply the value of reported fraction unbound at 10 µM for the item C[C@H]1[C@H](C)CC[C@]2(C(=O)O)CC[C@]3(C)C(=CC[C@@H]4[C@@]5(C)CC6=C(C7C(=O)N(c8ccccc8)C(=O)C7C=C6C(F)(F)F)C(C)(C)[C@@H]5CC[C@]43C)[C@H]12 (stereo partly specified)
Reply: 0.292

Task item: Please supply the value of reported fraction unbound at 10 µM for the item C=C(C)[C@@H]1CC[C@]2(C(=O)O)CC[C@]3(C)[C@H](CC[C@@H]4[C@@]5(C)CC6=C(C7C(=O)N(c8ccccc8)C(=O)C7C=C6C(F)(F)F)C(C)(C)[C@@H]5CC[C@]43C)[C@@H]12 (stereo partly specified)
Reply: 0.273

---
Task item: Please supply the value of reported fraction unbound at 10 µM for the item CC(C)[C@@H]1CC[C@]2(C(=O)O)CC[C@]3(C)[C@H](CC[C@@H]4[C@@]5(C)CC6=C(C7C(=O)N(c8ccccc8)C(=O)C7C=C6C(F)(F)F)C(C)(C)[C@@H]5CC[C@]43C)[C@@H]12 (stereo partly specified)
Reply: 0.403

Task item: Please supply the value of reported fraction unbound at 10 µM for the item `C=C(C)[C@@H]1CC[C@]2(C(=O)O)CC[C@]3(C)[C@H](CC[C@@H]4[C@@]5(C)Cc6c(C(F)(F)F)cc(C(=O)OC)c(C(=O)OC)c6C(C)(C)[C@@H]5CC[C@]43C)[C@@H]12`
Reply: 0.184
